B1: Homeobox protein cut-like 1, residues 548 to 629; numbered along this chain, P39880 (parent)
chain: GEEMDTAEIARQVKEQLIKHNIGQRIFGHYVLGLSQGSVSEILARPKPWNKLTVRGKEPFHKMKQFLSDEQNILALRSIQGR

Variants of: B1
ASSAY_PROCEDURE: abundance fitness (aPCA) (normalised: wild type 0, dead -1); higher = more abundant; growth selection in yeast, the domain comes from the species named
TEST_CONDITIONS: Homo sapiens

MUTATION_ANNOTATION	abundance fitness
K57W	-0.526
P46M	-0.459
I73D	-0.745
V39S	-0.316
R45S	0.041
A10K	-0.746
V13W	-0.721
K64F	-0.15
P46S	-0.652
R45D	-0.033
V31M	-0.431
K62I	-0.16
D69P	-0.75
A44I	-0.159
R25G	0.082
E58Y	-0.166
G33C	-0.4
P46F	-0.725
A44E	0.08
A7W	-0.143
K14H	0.1
K19N	-0.216
L34D	-0.274
R82H	0.063
Q24W	0.025
I26F	-0.078
Q36C	-0.157
N21H	0.009
